Data provenance: paper PMC7083851

protocol notes: Blood concentrations after subcutaneous dosing in rat PK/PD studies
Type: in vivo
measurement setup: rat, whole blood, subcutaneous, 1 mg/kg, 1 mg/kg SC, 14-day study, 72 h; read-out: blood concentration, individual rat
Method: Female CD rats (7–8 weeks old on arrival, Charles River Ltd.) were placed into groups using a randomization schedule based on body weight prior to the study start. All animals were acclimatized for a minimum of one week prior to the experiment commencing. […] PROTAC 4 was dissolved in saline with the pH adjusted to 5.0 with sodium hydroxide (1 M).
measurement kind: concentration at 72 h (ng/mL)
Response body: numeric value in ng/mL, unit text excluded.

Query block: What measured concentration at 72 h goes with CN[C@@H](C)C(=O)N[C@H](C(=O)N1CCC[C@H]1c1nc(C(=O)c2ccc(F)cc2)cs1)C1CCN(C(=O)c2cnc(N3CCN(CCOc4cc5ncnc(Nc6n[nH]c(C)c6C)c5cc4S(=O)(=O)C(C)(C)C)CC3)nc2)CC1 ?
Result block: 1.67
